Biological target: UniProt O15530
Sequence (O15530 whole entry): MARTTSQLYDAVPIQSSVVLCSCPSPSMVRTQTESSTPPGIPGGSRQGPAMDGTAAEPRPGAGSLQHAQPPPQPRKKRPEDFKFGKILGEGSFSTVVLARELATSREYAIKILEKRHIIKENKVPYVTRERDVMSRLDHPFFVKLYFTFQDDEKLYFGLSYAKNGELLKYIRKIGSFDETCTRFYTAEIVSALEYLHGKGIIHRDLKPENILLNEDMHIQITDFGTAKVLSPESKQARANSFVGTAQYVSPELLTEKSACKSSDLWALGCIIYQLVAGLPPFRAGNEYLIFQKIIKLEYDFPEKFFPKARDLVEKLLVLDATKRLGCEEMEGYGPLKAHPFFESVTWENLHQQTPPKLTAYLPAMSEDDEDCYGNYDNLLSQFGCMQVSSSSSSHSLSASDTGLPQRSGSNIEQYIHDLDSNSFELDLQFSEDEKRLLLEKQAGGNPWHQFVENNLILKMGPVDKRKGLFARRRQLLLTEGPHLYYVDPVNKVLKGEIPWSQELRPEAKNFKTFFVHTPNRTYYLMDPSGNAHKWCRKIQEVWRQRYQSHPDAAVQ
Assay: PDK1 3'-phosphoinositide-dependent kinase assay, phosphorylation of synthetic peptide (33P-ATP filtration)
Format: biochemical
Conditions: Table 2; 0.01 mM ATP; read-out: PDK1 IC50
readoutName: IC50

Qu. Record request: IC50 value, item CCN(CC)c1cc(Nc2ccc(S(C)(=O)=O)cc2)n2ncnc2n1
Ans. > 200 µM

Qu. Record request: IC50 value, item CCCc1cc(Nc2ccc(S(C)(=O)=O)cc2)n2ncnc2n1
Ans. > 200 µM

Qu. Record request: IC50 value, item CS(=O)(=O)c1ccc(Nc2cc(NCC34CC5CC(CC(C5)C3)C4)nc3ncnn23)cc1
Ans. > 200 µM

Qu. Record request: IC50 value, item Cc1cc(Nc2ccc(S(C)(=O)=O)cc2)n2ncnc2n1
Ans. > 200 µM

Qu. Record request: IC50 value, item CC(C)N(CCO)c1cc(Nc2ccc(S(C)(=O)=O)cc2)n2ncnc2n1
Ans. > 200 µM

Qu. Record request: IC50 value, item CC[C@H](CO)Nc1cc(Nc2ccc(S(C)(=O)=O)cc2)n2ncnc2n1
Ans. > 200 µM

Qu. Record request: IC50 value, item CC(C)(C)CNc1cc(Nc2ccc(S(C)(=O)=O)cc2)n2ncnc2n1
Ans. > 200 µM

Qu. Record request: IC50 value, item Oc1ccccc1-c1cc(Nc2ccc3cn[nH]c3c2)n2ncnc2n1
Ans. > 200 µM

Qu. Record request: IC50 value, item Clc1cc(NCC2CCNCC2)n2ncnc2n1
Ans. > 200 µM

Qu. Record request: IC50 value, item N[C@H]1CC[C@H](Nc2cc(Nc3ccc(S(=O)(=O)c4ccccc4)cc3)n3ncnc3n2)CC1
Ans. 14.2 µM

Qu. Record request: IC50 value, item CCN(CC)c1cc(NCC2CCNCC2)n2ncnc2n1
Ans. > 200 µM

Qu. Record request: IC50 value, item CC(C)c1cc(Nc2ccc(S(C)(=O)=O)cc2)n2ncnc2n1
Ans. > 200 µM

Qu. Record request: IC50 value, item CS(=O)(=O)c1ccc(CNc2cc(N[C@H]3CC[C@H](N)CC3)nc3ncnn23)cc1
Ans. > 200 µM

Qu. Record request: IC50 value, item CN(C)c1ccc(Nc2cc(Nc3ccc(S(C)(=O)=O)cc3)n3ncnc3n2)cc1
Ans. > 200 µM

Qu. Record request: IC50 value, item CCNc1cc(Nc2ccc(S(C)(=O)=O)cc2)n2ncnc2n1
Ans. > 200 µM

Qu. Record request: IC50 value, item Clc1cc(Nc2ccccc2)n2ncnc2n1
Ans. > 200 µM

Qu. Record request: IC50 value, item CCN(CC)c1cc(Nc2ccc(S(=O)(=O)c3ccccc3)cc2)n2ncnc2n1
Ans. > 200 µM

Qu. Record request: IC50 value, item CS(=O)(=O)c1ccc(Nc2cc(NC3CC3)nc3ncnn23)cc1
Ans. > 200 µM

Qu. Record request: IC50 value, item COc1cc(Nc2cc(Cl)nc3ncnn23)c(Cl)cc1C(=O)O
Ans. > 200 µM

----------
Molecular target: Chk1 (Homo sapiens, UniProt O14757)
Sequence (O14757 whole entry): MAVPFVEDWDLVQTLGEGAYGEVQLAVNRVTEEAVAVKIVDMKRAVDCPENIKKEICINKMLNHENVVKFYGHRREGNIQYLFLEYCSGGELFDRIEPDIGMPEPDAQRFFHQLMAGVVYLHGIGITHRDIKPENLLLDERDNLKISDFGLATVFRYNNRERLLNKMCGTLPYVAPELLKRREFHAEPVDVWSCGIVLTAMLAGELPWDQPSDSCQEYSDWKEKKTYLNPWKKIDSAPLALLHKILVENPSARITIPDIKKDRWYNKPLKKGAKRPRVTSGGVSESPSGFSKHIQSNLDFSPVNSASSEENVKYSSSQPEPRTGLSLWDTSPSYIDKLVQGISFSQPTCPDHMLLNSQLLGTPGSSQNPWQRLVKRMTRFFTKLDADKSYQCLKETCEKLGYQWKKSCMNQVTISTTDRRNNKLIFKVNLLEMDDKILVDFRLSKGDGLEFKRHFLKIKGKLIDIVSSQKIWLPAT
Experiment: Chk1 kinase assay, phosphorylation of Chktide (33P-ATP filtration)
Type: biochemical
Settings: Table 1; 0.01 mM ATP; read-out: Chk1 IC50
pIC50: −log10 of the molar value.
readoutName: pIC50

Qu. Record request: pIC50 value, item NS(=O)(=O)c1cccc(Nc2cc(Cl)nc3ncnn23)c1
Ans. < 3.70

Qu. Record request: pIC50 value, item NS(=O)(=O)c1ccc(Nc2cc(N3CCCC(CO)C3)nc3ncnn23)cc1 (centres unmarked)
Ans. < 3.70

Qu. Record request: pIC50 value, item NS(=O)(=O)c1ccc(Nc2cc(Nc3cccc(Cl)c3)nc3ncnn23)cc1
Ans. 4.39

Qu. Record request: pIC50 value, item CS(=O)(=O)c1ccc(Nc2cc(Cl)nc3ncnn23)cc1
Ans. < 3.70

Qu. Record request: pIC50 value, item NS(=O)(=O)c1ccc(Nc2cc(N3CCCC3)nc3ncnn23)cc1
Ans. < 3.70
